Reported emission maximum by item:
test: solvent given as SMILES; details: in CCCCCC
Respond numerically; units are nm and should not be typed.

Request: Please report the recorded emission maximum for "Cc1cc(O)c(C(C)C)cc1/N=C/c1ccc(O)cc1" .
Response: 399

Request: Please report the recorded emission maximum for "c1ccc(-c2nc(-c3ccc(-c4ccc(-n5c6ccccc6c6ccccc65)cc4)cn3)oc2-c2ccccc2)cc1" .
Response: 392

Request: Please report the recorded emission maximum for "CC1=CC(C)=[N+]2C1=Cc1c3ccccc3c(C#Cc3ccc(F)cc3)n1[B-]2(F)F" .
Response: 615

* * *

assay: solvent given as SMILES; details: in C1CCCCC1
Classes are defined on emission maximum with ranges 1 (below 400 nm), 2 (400 nm to below 500 nm), 3 (500 nm or more)

Past entries and their recorded results:
[
  {
    "smiles data": "C/C(=C\\c1ccccc1)c1nc2ccccc2o1",
    "category": 1
  },
  {
    "smiles data": "CCCC1(CCC)c2cc(-c3ccccc3)ccc2-c2ccc(-c3ccc4c(c3)C(CCC)(CCC)c3cc(-c5ccccc5)ccc3-4)cc21",
    "category": 1
  },
  {
    "smiles data": "CC(=O)c1c2c(cc3ccc(N(C)C)cc13)CCC2",
    "category": 2
  }
]

Here is another compound to look at.
Request: Class (by measured emission maximum) for "CC1(C)c2ccccc2N(c2cc3c4ccccc4n4c5ccccc5c(c2)c34)c2ccccc21"
Response: 2

* * *

assay: solvent given as SMILES; conditions: in CC#N
Reported emission maximum by item:
Express the reported value numerically, then name its unit.

[
  {
    "compound": "O=S1c2ccccc2-c2cc(-c3c4ccccc4cc4ccccc34)ccc21 (stereo unspecified)",
    "emission maximum": "504.43 nm"
  },
  {
    "compound": "CC1CC=C(c2ccc(-c3ccc(C=O)s3)s2)CC1 (stereo unspecified)",
    "emission maximum": "482 nm"
  },
  {
    "compound": "CN(C)c1ccc(/C=C/C=C2\\CC/C(=C\\C=C\\c3ccc(N(C)C)cc3)C2=O)cc1",
    "emission maximum": "717 nm"
  },
  {
    "compound": "F[B-]1(F)n2c(Nc3cccc4cccnc34)ccc2C(c2ccccc2)=C2C=CC(Cl)=[N+]21",
    "emission maximum": "580 nm"
  },
  {
    "compound": "C(=C\\c1cccc2ccccc12)/c1ccc(-c2nnc(-c3ccc(-c4cc5ccccc5s4)cc3)o2)cc1",
    "emission maximum": "441 nm"
  }
]

Request: Please report the recorded emission maximum for "Fc1nc(F)c(F)c(/C=C2/C(c3c(F)c(F)nc(F)c3F)=Cc3ccccc32)c1F" .
Response: 395 nm

Request: Please report the recorded emission maximum for "C[N+]1=C(/C=C/C2=C3Oc4c(cc5c6c4CCCN6CCC5)C(c4ccccc4C(=O)O)=C3CCC2)C(C)(C)c2c1ccc1ccccc21" .
Response: 780 nm

Request: Please report the recorded emission maximum for "C(/C=C/c1ccc(-n2c3ccccc3c3ccccc32)cc1)=C\c1ccncc1" .
Response: 492 nm

Request: Please report the recorded emission maximum for "F[B-]1(F)n2cccc2C(c2ccc(-c3c4ccccc4c(-c4ccccc4)c4ccccc34)cc2)=C2C=CC=[N+]21" .
Response: 516 nm

Request: Please report the recorded emission maximum for "Cc1cc(C)c(C)c(-c2ccc3cc(C)c(=O)oc3c2)c1C" .
Response: 388 nm

Request: Please report the recorded emission maximum for "COC(=O)c1cc(=O)n(Cc2ccccc2)c2cc(-c3ccc(OC)cc3)sc12" .
Response: 477 nm
